Just for reference, the supplement of paper PMC12494721 is where these values come from.

# System: Ruminococcus gnavus DSM 108212
# method.description: fold change of 2-Phenylethylamine concentration vs plate DMSO controls (fold change (ratio)); higher = more amine produced, active = hit call of the paper (significant change in both replicates, either direction)
# run.conditions: 20 µM; incubation time: 27 h, anaerobic, 37 °C
Counter-ions that a name gives are not always drawn.
// reported fold change of 2-Phenylethylamine concentration for each item listed
Just the number.

Worked set:
compound: CCc1nn(C)c(C(=O)NCc2ccc(Oc3ccc(C)cc3)cc2)c1Cl
assay.result: 1.04

compound: COc1ccc(Cc2nccc3cc(OC)c(OC)cc23)cc1OC [Papaverine hydrochloride]
assay.result: 1.06

compound: CC(C)c1c(CN(C)C(C)Cc2ccccc2)n(C)n(-c2ccccc2)c1=O (stereo not drawn)
assay.result: 1.02

compound: CCOP(=S)(OCC)Oc1nc(Cl)c(Cl)cc1Cl
assay.result: 0.873

compound: CCC(C)(c1ccc(O)cc1)c1ccc(O)cc1
assay.result: 0.974

# fold change of 2-Phenylethylamine concentration measured on Ruminococcus gnavus DSM 108212 for item CCc1cnc(C2=NC(C)(C(C)C)C(=O)N2)c(C(=O)O)c1 (stereo not drawn) = 0.984

# fold change of 2-Phenylethylamine concentration measured on Ruminococcus gnavus DSM 108212 for item `CC(C)N(C)S(=O)(=O)NC(=O)c1cc(-n2c(=O)cc(C(F)(F)F)n(C)c2=O)c(F)cc1Cl` = 0.819

# fold change of 2-Phenylethylamine concentration measured on Ruminococcus gnavus DSM 108212 for item `C[C@]12C/C(=C/O)C(=O)C[C@@H]1CC[C@@H]1[C@@H]2CC[C@@]2(C)[C@H]1CC[C@]2(C)O` = 0.271

# fold change of 2-Phenylethylamine concentration measured on Ruminococcus gnavus DSM 108212 for item C#CCN(C)[C@H](C)Cc1ccccc1 [Selegiline hydrochloride] = 1.06

# fold change of 2-Phenylethylamine concentration measured on Ruminococcus gnavus DSM 108212 for item `OC(c1ccccc1)(c1ccccc1)C1CCNCC1` = 1.06

----------
# System: Escherichia coli IAI1
# method.description: fold change of Putrescine concentration vs plate DMSO controls (fold change (ratio)); higher = more amine produced, active = hit call of the paper (significant change in both replicates, either direction)
# run.conditions: 20 µM; incubation time: 27 h, anaerobic, 37 °C
Where a name gives a salt, the structure may show the parent alone.
measured.quantity: fold change of Putrescine concentration

Worked set:
molecule: CC[N+]1(C)CCCC(OC(=O)C(O)(c2ccccc2)c2ccccc2)C1 (configuration not stated) [Pipenzolate bromide]
target.desc: Escherichia coli IAI1
fold change of Putrescine concentration: 1.06 (inactive)
--
molecule: C=CCN1CC[C@]23c4c5ccc(O)c4O[C@H]2C(=O)CC[C@@]3(O)[C@H]1C5 [Naloxone hydrochloride]
target.desc: Escherichia coli IAI1
fold change of Putrescine concentration: 1.02 (inactive)
--
molecule: O=S(=O)(c1ccc(O)cc1)c1ccc(O)cc1
target.desc: Escherichia coli IAI1
fold change of Putrescine concentration: 0.883 (inactive)

The molecule listed as `CNC(=O)Oc1cccc(/N=C/N(C)C)c1` has a reported fold change of Putrescine concentration of 0.96 (inactive)

The molecule listed as ClC1C(Cl)C(Cl)C(Cl)C(Cl)C1Cl (configuration not stated) has a reported fold change of Putrescine concentration of 1 (inactive)

The molecule listed as `CC(C)(C)c1ccc(CSc2cnn(C(C)(C)C)c(=O)c2Cl)cc1` has a reported fold change of Putrescine concentration of 0.97 (inactive)

The molecule listed as `Cc1cccc(C)c1NC(=O)CN1CCCC1=O` has a reported fold change of Putrescine concentration of 0.988 (inactive)
